System: SN12K1
Test: cells
Format: functional
Settings: Homo sapiens
The source made the active and inactive calls. Cut-off read from the data, not from the text of the source: active = GI50 up to about 1.1 µM and inactive = higher.
value kind: GI50

C=CCNC(=O)C(C)C1CCC2(C)C=CC(=O)C(C)=C2C1O (centres undefined) ... > 100 µM (inactive)
CCOC(=O)COc1ccccc1/C=C1\CCC(CN(C)C)C1=O (centres undefined) ... 1.87 µM (inactive)
CC1(C)S[C@@H]2[C@H](NC(=O)CCC[C@@H](N)C(=O)O)C(=O)N2[C@H]1C(=O)O ... > 50 µM (inactive)
CC12CCC3C(CCC4(O)C=CCCC34C=O)C1(O)CC(O)C2c1ccc(=O)oc1 (centres undefined) ... 0.0624 µM (active)
